System: antibodies in sera from SARS patients (sera 1a, 1b, 2, 6, 37, 62, London, SARS-yellow, SARS-green)
Assay type: binding, human
The reader will find reported Binding of serum 1a to linear peptides of protein M of SARS-CoV Urbani values listed item by item below.
ASSAY METRIC: Binding of serum 1a to linear peptides of protein M of SARS-CoV Urbani

INSERT INTO results (sequence_chain, experimental_result) VALUES
  ('RINWVTGGIAIAMAC', 0.7),
  ('CIVGLMWLSYFVASF', 0.7),
  ('ELKQLLEQWNLVIGF', 0.8),
  ('IKDLPKEITVATSRT', 0.7),
  ('LFARTRSMWSFNPET', 0.8),
  ('PKEITVATSRTLSYY', 0.6),
  ('LRGTIVTRPLMESEL', 0.7),
  ('LVIGAVIIRGHLRMA', 0.7),
  ('YRIGNYKLNTDHAGS', 0.7),
  ('MWLSYFVASFRLFAR', 0.6),
  ('FLFLAWIMLLQFAYS', 0.7),
  ('RYRIGNYKLNTDHAG', 0.7),
  ('FLWLLWPVTLACFVL', 0.6),
  ('LWLLWPVTLACFVLA', 0.7),
  ('VATSRTLSYYKLGAS', 0.6),
  ('NILLNVPLRGTIVTR', 0.7),
  ('KQLLEQWNLVIGFLF', 0.7),
  ('TDSGFAAYNRYRIGN', 0.6);

###

System: antibodies in sera from SARS patients (sera 1a, 1b, 2, 6, 37, 62, London, SARS-yellow, SARS-green)
Assay type: binding, human
The reader will find reported Binding of serum 2 to linear peptides of protein N of SARS-CoV Urbani values listed item by item below.
ASSAY METRIC: Binding of serum 2 to linear peptides of protein N of SARS-CoV Urbani

INSERT INTO measurements (sequence_chain, experimental_result) VALUES
  ('LNKHIDAYKTFPPTE', 0.1),
  ('DDQIGYYRRATRRVR', 0.3),
  ('KDHIGTRNPNNNAAT', 0.4),
  ('AFFGMSRIGMEVTPS', 0.2),
  ('PKQRRPQGLPNNTAS', 0.4),
  ('AQPLPQRQKKQPTVT', 0.4),
  ('KELSPRWYFYYLGTG', 0.1),
  ('NTASWFTALTQHGKE', 0.1),
  ('DFSRQLQNSMSGASA', 0.2);

###

System: antibodies in sera from SARS patients (sera 1a, 1b, 2, 6, 37, 62, London, SARS-yellow, SARS-green)
Format: binding, human
ASSAY METRIC: Binding of serum SARS-green to looped/cyclic peptides of protein X3 of SARS-CoV Urbani

INSERT INTO results (sequence_chain, experimental_result) VALUES
  ('IAIWNLDVIISSIVR', 0.0),
  ('IWNLDVIISSIVRQL', 0.3),
  ('HLVDFQVTIAEILII', 0.2),
  ('LDVIISSIVRQLFKP', 0.2);

###

System: control sera (pooled serum of ten healthy LUMC hospital workers; commercial negative donor pooled serum from the Dutch bloodbank)
Assay type: binding, human
ASSAY METRIC: Control serum Blood-bank linear peptides

INSERT INTO assay_data (sequence_chain, experimental_result) VALUES
  ('FKDNVILLNKHIDAY', 0.6),
  ('DFSRQLQNSMSGASA', 0.6),
  ('KDKKKKTDEAQPLPQ', 0.6),
  ('TVTLLPAADMDDFSR', 0.6),
  ('DYKHWPQIAQFAPSA', 0.9),
  ('PQFKDNVILLNKHID', 0.7);

###

The reader will find reported Rabbit serum looped peptides values listed item by item below.
Test system: rabbit serum obtained by immunizing a rabbit with the SARS-CoV strain Frankfurt 1
Assay type: binding
Set-up: unit not given here
ASSAY METRIC: Rabbit serum looped peptides

INSERT INTO measurements (sequence_chain, target_or_test_system, experimental_result) VALUES
  ('INWVTGGIAIAMACI', 'rabbit serum obtained by immunizing a rabbit with the SARS-CoV strain Frankfurt 1', 0.4),
  ('LIIIMRTFRIAIWNL', 'rabbit serum obtained by immunizing a rabbit with the SARS-CoV strain Frankfurt 1', 0.3),
  ('FLAWIMLLQFAYSNR', 'rabbit serum obtained by immunizing a rabbit with the SARS-CoV strain Frankfurt 1', 0.5),
  ('YKLGASQRVGTDSGF', 'rabbit serum obtained by immunizing a rabbit with the SARS-CoV strain Frankfurt 1', 0.2),
  ('WIMLLQFAYSNRNRF', 'rabbit serum obtained by immunizing a rabbit with the SARS-CoV strain Frankfurt 1', 0.3),
  ('PCPSGTYEGNSPFHP', 'rabbit serum obtained by immunizing a rabbit with the SARS-CoV strain Frankfurt 1', 0.4),
  ('FLFLAWIMLLQFAYS', 'rabbit serum obtained by immunizing a rabbit with the SARS-CoV strain Frankfurt 1', 0.3),
  ('CTSTHFAFACADGTR', 'rabbit serum obtained by immunizing a rabbit with the SARS-CoV strain Frankfurt 1', 0.6),
  ('IMLLQFAYSNRNRFL', 'rabbit serum obtained by immunizing a rabbit with the SARS-CoV strain Frankfurt 1', 0.5),
  ('MWLSYFVASFRLFAR', 'rabbit serum obtained by immunizing a rabbit with the SARS-CoV strain Frankfurt 1', 0.5),
  ('NYSELDDEEPMELDY', 'rabbit serum obtained by immunizing a rabbit with the SARS-CoV strain Frankfurt 1', 0.3),
  ('IAIAMACIVGLMWLS', 'rabbit serum obtained by immunizing a rabbit with the SARS-CoV strain Frankfurt 1', 0.3),
  ('SELVIGAVIIRGHLR', 'rabbit serum obtained by immunizing a rabbit with the SARS-CoV strain Frankfurt 1', 0.2),
  ('VTIAEILIIIMRTFR', 'rabbit serum obtained by immunizing a rabbit with the SARS-CoV strain Frankfurt 1', 0.4),
  ('ALTCTSTHFAFACAD', 'rabbit serum obtained by immunizing a rabbit with the SARS-CoV strain Frankfurt 1', 0.6),
  ('PLRGTIVTRPLMESE', 'rabbit serum obtained by immunizing a rabbit with the SARS-CoV strain Frankfurt 1', 0.4),
  ('SYFVASFRLFARTRS', 'rabbit serum obtained by immunizing a rabbit with the SARS-CoV strain Frankfurt 1', 0.4),
  ('LTKKNYSELDDEEPM', 'rabbit serum obtained by immunizing a rabbit with the SARS-CoV strain Frankfurt 1', 0.4);

###

Tested on: control sera (pooled serum of ten healthy LUMC hospital workers; commercial negative donor pooled serum from the Dutch bloodbank)
Assay type: binding, human
Design: unit not given here
ASSAY METRIC: Binding of Control serum LUMC to looped peptides of the protein M of SARS-CoV Urbani

INSERT INTO results (sequence_chain, experimental_result) VALUES
  ('IVGLMWLSYFVASFR', 0.6),
  ('VGTDSGFAAYNRYRI', 0.6),
  ('FLWLLWPVTLACFVL', 0.7),
  ('VPLRGTIVTRPLMES', 0.7),
  ('GGIAIAMACIVGLMW', 0.9),
  ('GRCDIKDLPKEITVA', 0.9),
  ('LFLAWIMLLQFAYSN', 0.6),
  ('IMLLQFAYSNRNRFL', 0.6),
  ('GTIVTRPLMESELVI', 1.0),
  ('YSNRNRFLYIIKLVF', 0.9),
  ('MWLSYFVASFRLFAR', 0.7),
  ('LSYFVASFRLFARTR', 1.0),
  ('QWNLVIGFLFLAWIM', 0.6),
  ('IKDLPKEITVATSRT', 0.7),
  ('RPLMESELVIGAVII', 0.8),
  ('SELVIGAVIIRGHLR', 0.6),
  ('SFNPETNILLNVPLR', 1.0),
  ('SYFVASFRLFARTRS', 0.9),
  ('ACIVGLMWLSYFVAS', 0.5),
  ('LVIGAVIIRGHLRMA', 0.7),
  ('WSFNPETNILLNVPL', 0.8),
  ('RYRIGNYKLNTDHAG', 0.7),
  ('FLFLAWIMLLQFAYS', 0.7),
  ('NYKLNTDHAGSNDNI', 0.8),
  ('HPLGRCDIKDLPKEI', 0.7);

###

System: antibodies in sera from SARS patients (sera 1a, 1b, 2, 6, 37, 62, London, SARS-yellow, SARS-green)
Assay type: binding, human
ASSAY METRIC: Binding of serum 2 to linear peptides of protein X5 of SARS-CoV Urbani

INSERT INTO results (sequence_chain, experimental_result) VALUES
  ('TCTPNVTINCQDPAG', 0.6),
  ('VQTCTPNVTINCQDP', 0.7),
  ('AGGALIARCWYLHEG', 0.5),
  ('PAGGALIARCWYLHE', 0.6),
  ('GKVLPFHRWHTMVQT', 0.6),
  ('ALIARCWYLHEGHQT', 0.6);
